B1: glmS ribozyme (parent)
chain: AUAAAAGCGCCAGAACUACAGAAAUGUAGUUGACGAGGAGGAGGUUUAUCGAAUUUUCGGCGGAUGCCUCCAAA

Variants of: B1
Assay: kcat; higher = faster cleavage; RNA array
Details: with glucosamine-6-phosphate
This sample holds only a part of the variants without activity.
recorded-endpoint: log10 of kcat (log10 of the value in s⁻¹)
Use the decimal logarithm of kcat (s⁻¹).

(Q) I am curious: what log10 of kcat value has been reported for U31G G60A ?
(A) -4.84

(Q) Repeat with U47C U55G
(A) -2.42

(Q) Repeat with A33C C70U
(A) -4.92

(Q) Repeat with U49G U69G
(A) -4.22

(Q) Repeat with C58A C68A
(A) -4.43

(Q) Repeat with G29C U55C
(A) -2.55

(Q) Repeat with C8A C10A G38A C50G
(A) -4.25

(Q) Repeat with U31A C71A
(A) -2.58

(Q) Repeat with G13C A14C U45A
(A) -3.38

(Q) Repeat with A6U U56C
(A) -4.51

(Q) Repeat with A42C C67A
(A) -3.91

(Q) Repeat with U55C U69A
(A) -4.76

(Q) Repeat with U30G U46G
(A) -2.57

(Q) Repeat with A36C C68G
(A) -4.15

(Q) Repeat with A42G U54G
(A) -1.33

(Q) Repeat with U54C C67A
(A) -2.22

(Q) Repeat with A12C G13A
(A) -3.33

(Q) Repeat with C10U A14G C68G
(A) -4.48

(Q) Repeat with U30A U45A
(A) -2.04

(Q) Repeat with "A33C"
(A) -3.30

// provenance: the supplement of paper PMC7125110
